assayed.target: TDP-43 (Homo sapiens, UniProt Q13148 1-414)
Sequence (Q13148 whole entry): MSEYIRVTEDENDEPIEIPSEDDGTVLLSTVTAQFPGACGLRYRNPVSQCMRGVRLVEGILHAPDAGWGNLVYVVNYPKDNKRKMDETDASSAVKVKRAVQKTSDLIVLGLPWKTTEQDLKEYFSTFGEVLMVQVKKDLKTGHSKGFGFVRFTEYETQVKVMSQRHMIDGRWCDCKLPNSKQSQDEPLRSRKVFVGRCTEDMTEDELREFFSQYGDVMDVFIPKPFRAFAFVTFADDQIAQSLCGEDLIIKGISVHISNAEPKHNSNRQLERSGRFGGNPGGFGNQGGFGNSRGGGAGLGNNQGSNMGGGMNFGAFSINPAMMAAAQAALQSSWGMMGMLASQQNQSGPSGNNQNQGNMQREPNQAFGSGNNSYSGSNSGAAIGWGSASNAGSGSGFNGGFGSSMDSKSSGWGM
experiment.description: RNA Bind-n-Seq with designed 260-mer pool; 25 mM Tris-HCl, 150 mM KCl, 3 mM MgCl2, BSA (printed 500 mg/mL), 20 units/mL SUPERase IN; pH not stated; 500 nM RNA pool, 1 h, 4 C; TDP-43 5, 50, 500 nM; high values mean tight binding
test.conditions: protein: recombinant; tags: SBP (GST cleaved off with PreScission; pGEX-GST-SBP)
In all, about 9,900 sequences were measured (“r (bound/input frequency ratio)”: median about 0.7, highest 2% from about 6.5 on). This is one part of a sample in which the highest values are shown more often than they occur.
assay.endpoint: binding signal

>>> result("ENSMUSG00000058297.294|Spock2|77:82 (ssRNA) RNA: GGGAGUUCUACAGUCCGACGAUCGCUUCGAUAUCCGCAUGCUAAGAGAGAAUGAGAGAGAAUGAGAGAGAGAAUACCCGAGGGCCACCCUGAUGCCCAGGAAGAGUGAGGGCAGCCCCCACACACGUGGAAGAGGCUGGGCAGCUAGCUACUGGGGACCUUGUGCUGAGGCUUCCAGGACAAAGCCCCAGUCUGGCUCUCCCCCAGCCUCUCAGGGGCACUGGCUGGUCACAUCCACUGAGUAUUGAUCGGUUGGACUUUAGGGAAGAGCCUCCUCCUUCCCAUUCCUUUCUGCCACCCUGGACUCUUGCGGUCGCACUAGUGUGGAAUUCUCGGGUGUCAAGG")
"2.62 R (bound/input frequency ratio)"
